# Test system: primary human AML cells
# Measurement Description: Primary screen: differentiation of primary human AML cells in vitro (CD34/CD15, HTS flow cytometry)
# Test Conditions: compared to DMSO
Could you please mark rule met for values of % increase CD34+CD15− (cell counts) below 40% and rule not met for values at or above it?

Some solved entries appear below for comparison.
COc1ccc(-c2cc(=O)c3c(OC(C)=O)cc(OC(C)=O)cc3o2)cc1 [UM0120987, Acacetin diacetate] | rule not met
O=c1c2ccccc2oc2ccc(O)cc12 [UM0121186, 2-Hydroxyxanthone] | rule not met
O=c1c(O)c(-c2ccc(O)cc2)oc2cc(O)cc(O)c12 [UM0118952, Kaempferol] | rule not met
COc1ccc(-c2cc(=O)c3ccccc3o2)cc1 [UM0070201, 4′-Methoxyflavone] | rule not met
COc1ccc(-c2cc(=O)c3ccc(O)cc3o2)cc1 [UM0117304, Pratol] | rule not met

Ask: Is % increase CD34+CD15− (cell counts) of CCCCCCC(=O)CCCCCC/C=C/C[C@@H](O)[C@H](O)[C@@](N)(CO)C(=O)O [UM0119199, Myriocin] strictly below 40%?
Result: rule met

Ask: Is % increase CD34+CD15− (cell counts) of COc1cc(-c2oc3cc(O)cc(O)c3c(=O)c2O)ccc1O [UM0119319, Isorhamnetine] strictly below 40%?
Result: rule not met

Ask: Is % increase CD34+CD15− (cell counts) of COc1ccc2c(c1)[nH]c1c(C)nccc12.Cl [UM0118303, Harmine hydrochloride] strictly below 40%?
Result: rule met

Ask: Is % increase CD34+CD15− (cell counts) of COc1cc(-c2ccc(N=Nc3ccc4c(S(=O)(=O)[O-])cc(S(=O)(=O)[O-])c(N)c4c3O)c(OC)c2)ccc1N=Nc1ccc2c(S(=O)(=O)[O-])cc(S(=O)(=O)[O-])c(N)c2c1O.[Na+].[Na+].[Na+].[Na+] [UM0118703, Chicago sky blue 6B] strictly below 40%?
Result: rule not met

Ask: Is % increase CD34+CD15− (cell counts) of COc1cc(-c2oc3cc(O)ccc3c(=O)c2O)ccc1O [UM0119468, Geraldol] strictly below 40%?
Result: rule met

###

# Tested on: primary human AML cells
# Measurement Description: Primary screen: differentiation of primary human AML cells in vitro (CD34/CD15, HTS flow cytometry)
# Test Conditions: compared to DMSO
Readout: % increase CD34+ (cell counts) (%)
Numbers only here, please. The scale is %.

O=c1c(O)c(-c2ccc(O)cc2)oc2cc(O)cc(O)c12 | −2.29
COc1ccc(-c2coc3c(O)c(OC)ccc3c2=O)cc1 | 59.80
CCOC(=O)c1oc2c(OC)c(O)cc(O)c2c(=O)c1-c1cc(OC)c(OC)c(OC)c1 | 18.21
COc1c(O)cc2oc(-c3ccc(O)c(O)c3)cc(=O)c2c1O | −2.77
C[C@]12CC[C@H](O)C[C@H]1CC[C@@H]1[C@@H]2CC[C@]2(C)[C@@H](C3=CC(=O)OC3)[C@@H](O)C[C@]12O | −44.85
CC(C)=CCc1c(O)cc2oc(C)cc(=O)c2c1O | 37.27
O=c1cc(-c2ccccc2)oc2cc(O)cc(O)c12 | 48.57
Oc1cc(O)cc(/C=C/c2ccccc2)c1 | 8.62

Reported % increase CD34+ (cell counts) for Oc1ccc(C=Cc2cc(O)cc(O)c2)cc1 was −14.19

Reported % increase CD34+ (cell counts) for OC[C@@H]1CCCN2CCCC[C@H]12 was 30.63

Reported % increase CD34+ (cell counts) for COc1ccc(C2CC(=O)c3ccc(OC)cc3O2)cc1 (stereo not drawn) was 31.66

Reported % increase CD34+ (cell counts) for COc1cc(-c2ccc(N=Nc3ccc4c(S(=O)(=O)[O-])cc(S(=O)(=O)[O-])c(N)c4c3O)c(OC)c2)ccc1N=Nc1ccc2c(S(=O)(=O)[O-])cc(S(=O)(=O)[O-])c(N)c2c1O.[Na+].[Na+].[Na+].[Na+] was 31.67

Reported % increase CD34+ (cell counts) for O=c1cc(-c2ccc(O)c(O)c2)oc2cc(O)cc(O)c12 was 4.97

Reported % increase CD34+ (cell counts) for CNC(=O)c1cc2c(cn1)[nH]c1ccccc12 [UM0119840, N-Methyl-beta-carboline-3-carboxamide] was 37.57

Reported % increase CD34+ (cell counts) for CCOC(=O)c1c(C)cc(O)c(C)c1O was 22.38

Data provenance is patent US9757378B2.
